pIC50: −log10 of the molar value.
The entries that follow carry pIC50 values tested on Epidermal growth factor receptor (Homo sapiens, UniProt P00533), drawn from several published reports.

compound	system-tested	pIC50
CN(C(=O)/C=C/CN(C)C1CC1)c1cccc(-n2c(Cl)c(-c3ccc(Cl)cc3)c3c(N)ncnc32)c1	Epidermal growth factor receptor (Homo sapiens, UniProt P00533)	5.00 to 6.00
C=CC(=O)Nc1cccc(Nc2nc(Nc3ccc(O[C@H](C)COC(=O)[C@@H](N)C(C)C)c(F)c3)ncc2F)c1	Epidermal growth factor receptor (Homo sapiens, UniProt P00533)	> 8.00
C=CC(=O)Nc1cccc(Nc2nc(Nc3ccc(N4CCN(C(=O)C(C)(C)C)CC4)cc3OC)ncc2C(F)(F)F)c1	Epidermal growth factor receptor (Homo sapiens, UniProt P00533)	7.00 to 7.52
Cc1ccc(Oc2ccc(Nc3ncnc4sc5c(c34)CN(C(=O)/C=C/CN(C)C)CC5)cc2C)cn1	Epidermal growth factor receptor (Homo sapiens, UniProt P00533)	< 5.00
CC1CC(C)CN(Cc2ccc(Nc3nc4ncnc(Nc5ccc(F)c(Cl)c5)c4s3)cc2)C1 (stereo not shown)	Epidermal growth factor receptor (Homo sapiens, UniProt P00533)	7.67

Query :: What pIC50 appears in the records for this compound with Epidermal growth factor receptor (Homo sapiens, UniProt P00533)? Cc1cnc(NC(=O)c2ccc(Oc3ccnc4[nH]nc(N[C@@H]5CCCN(C(=O)/C=C/CN(C)C6CC6)C5)c34)cc2)s1
Result :: 5.00 to 6.00

Query :: What pIC50 appears in the records for this compound with Epidermal growth factor receptor (Homo sapiens, UniProt P00533)? Cc1cc(Nc2ncnc3cnc(N(C)[C@@H]4CCOC4)nc23)ccc1Oc1ccc2c(c1)ncn2C
Result :: 5.49
